The values you see were collected from PubChem BioAssay AID624330.

# target: Rac GTPase-activating protein 1 (Homo sapiens)
# assay details: blockers of MgcRacGAP-driven Rac1 GTP hydrolysis – biochemical, ADP Hunter fluorescence, primary and confirmatory, confirmation (AID 624330);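 further: fluorescence reports GDP produced by GAP-driven GTP hydrolysis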
# assay setup: MgcRacGAP-stimulated Rac1 GTP hydrolysis, at 30 µM, active compounds read high, GST-tagged Rac1 F28L mutant substrate
In all, about 340,000 compounds went through this assay and about 2,100 (0.62%) were called active. Not all results are given here. Results with a measured potency or affinity are listed apart.
recorded endpoint: inhibition (%)

compound	target	recorded endpoint	numeric result
COC(=O)c1ccccc1COn1c(=O)c(C)[n+]([O-])c2ccccc21	Rac GTPase-activating protein 1 (Homo sapiens)	inhibition	6.87
Cc1nc2cc3nc(C)sc3cc2s1	Rac GTPase-activating protein 1 (Homo sapiens)	inhibition	10.8
COc1cc(/C=N/n2c(-c3ccccc3)n[nH]c2=S)cc(OC)c1OC	Rac GTPase-activating protein 1 (Homo sapiens)	inhibition	14.2
COc1ccc(/C=N/n2c(-c3cc(C)[nH]n3)n[nH]c2=S)cc1	Rac GTPase-activating protein 1 (Homo sapiens)	inhibition	21.4
CCCC(=O)NC(=S)Nc1ccccc1F	Rac GTPase-activating protein 1 (Homo sapiens)	inhibition	5.15
O=C(COc1ccccc1)NC(=S)Nc1cccc2c(O)cccc12	Rac GTPase-activating protein 1 (Homo sapiens)	inhibition	17.9
COc1cccc(C(=O)N/N=C(\C)c2ccc(NC(=O)Cc3ccccc3)cc2)c1OC	Rac GTPase-activating protein 1 (Homo sapiens)	inhibition	10.3
COc1ccc(CCNC(=O)c2cccc(S(=O)(=O)N3CCCCC3)c2)cc1	Rac GTPase-activating protein 1 (Homo sapiens)	inhibition	8.12
O=C(CNC(=O)c1ccccc1)NCC(O)c1ccc([N+](=O)[O-])cc1 (stereo unspecified)	Rac GTPase-activating protein 1 (Homo sapiens)	inhibition	-4.75
O=C(NC(=S)Nc1cccc2ncccc12)c1ccco1	Rac GTPase-activating protein 1 (Homo sapiens)	inhibition	-0.13
C/C(=N\NC(=O)C(O)(c1ccccc1)c1ccccc1)c1ccc(NC(=O)CCCC(=O)O)cc1	Rac GTPase-activating protein 1 (Homo sapiens)	inhibition	7.64
